Value source: patent US20250034196A1

TEST: in vivo
Parameters: species or system Beagle Dogs
CONDITION: female, beagle, dog, po, 20 mg/kg, Plasma concentration of EX-2/CH2101
Experimental: Example 174: Pharmacokinetic Study of EX-2 (CH2101), Molnupiravir (CH2017) and its Metabolite NHC (CH2018) Following a Single PO Administration of EX-2 (CH2101) or Molnupiravir (CH2017) in Male and Female Beagle Dogs Both test compounds were prepared in 1% methyl cellulose (400 cps, SIGMA, SLCF9694) solution in purified water. […]
TEST READOUT: concentration at 1 hr (ng/mL)
Reply numerically in ng/mL, unit not repeated.

Indicate its recorded concentration at 1 hr; the compound in question is `CC(=O)ONc1ccn([C@@H]2O[C@H](CO)[C@@H](O)[C@H]2O)c(=O)n1` 11.3

----------
TEST: in vivo
Parameters: species or system Beagle Dogs
CONDITION: both sexes, beagle, dog, po, 22 mg/kg, Plasma concentration of CH2107 (Molnupiravir)
TEST READOUT: concentration at 1 hr (ng/mL)
Reply numerically in ng/mL, unit not repeated.

Indicate its recorded concentration at 1 hr; the compound in question is `CC(C)C(=O)OC[C@H]1O[C@@H](n2ccc(NO)nc2=O)[C@H](O)[C@@H]1O` 230

----------
TEST: in vivo
Parameters: species or system Beagle Dogs
CONDITION: male, beagle, dog, po, 10 mg/kg, AUClast of EX-2/CH2101
TEST READOUT: AUC(0-t)
The reply should read as a number followed by its unit.

Indicate its recorded AUC(0-t); the molecule in question is CC(=O)ONc1ccn([C@@H]2O[C@H](CO)[C@@H](O)[C@H]2O)c(=O)n1 [EX-2] 5.07 ng·h/mL

----------
TEST: in vivo
Design: species or system Beagle Dogs
CONDITION: female, beagle, dog, po, 22 mg/kg, Plasma concentration of CH2107 (Molnupiravir)
TEST READOUT: concentration at 1 hr
The reply should read as a number followed by its unit.

Indicate its recorded concentration at 1 hr; the compound in question is `CC(C)C(=O)OC[C@H]1O[C@@H](n2ccc(NO)nc2=O)[C@H](O)[C@@H]1O` 207 ng/mL

----------
TEST: in vivo
Parameters: species or system Beagle Dogs
CONDITION: female, Beagle, dog, po, 22 mg/kg, AUCINF of CH2107 (Molnupiravir)
Description: Example 174: Pharmacokinetic Study of EX-2 (CH2101), Molnupiravir (CH2017) and its Metabolite NHC (CH2018) Following a Single PO Administration of EX-2 (CH2101) or Molnupiravir (CH2017) in Male and Female Beagle Dogs Both test compounds were prepared in 1% methyl cellulose (400 cps, SIGMA, SLCF9694) solution in purified water. […]
TEST READOUT: AUC(0-inf) (ng·h/mL)
Reply numerically in ng·h/mL, unit not repeated.

Indicate its recorded AUC(0-inf); the molecule in question is `CC(C)C(=O)OC[C@H]1O[C@@H](n2ccc(NO)nc2=O)[C@H](O)[C@@H]1O` 598

----------
TEST: in vivo
Parameters: species or system Beagle Dogs
CONDITION: both sexes, beagle, dog, po, 10 mg/kg, Tmax of EX-1/NHC/CH2018
TEST READOUT: Tmax
The reply should read as a number followed by its unit.

Indicate its recorded Tmax; the molecule in question is `O=c1nc(NO)ccn1[C@@H]1O[C@H](CO)[C@@H](O)[C@H]1O` 52.5 min
